- Test system: EKVX
- test_summary: NCI tumour cell line growth inhibition, 48 h
Calls of active or inactive are those of the source. Rule as the data show it: active = GI50 up to about 1.1 µM and inactive = higher.
Can you tell me GI50 for the items I'm about to list?

For the compound Cn1c2c(c3ccccc31)C1C(=O)N(c3ccccc3)C(=O)C1CC2 (configuration not stated) , what GI50 is on record?
> 303 µM (inactive)

Queued: CN(C)C(=O)Oc1ccc(-c2cn3cc(NC(=O)c4ccccc4)ccc3n2)cc1
> 100 µM (inactive)

Queued: N#Cc1ccc(-c2nc3c(N)ncnc3o2)cc1
> 100 µM (inactive)

Queued: COc1cc(OC)cc(C(=O)Cc2c(C(=O)c3ccccc3)c3ccccc3n2C(=O)c2ccccc2)c1
55.2 µM (inactive)

Queued: COC(=N)CCCl
> 100 µM (inactive)

Queued: NS(=O)(=O)c1ccc(NC(=O)COC(=O)c2cccc3c(=O)c4ccccc4[nH]c23)cc1
38.2 µM (inactive)

Queued: Cn1c(=O)c(NC(=O)C(Cl)(Cl)Cl)nc2ccccc21
54.5 µM (inactive)
